# Assay target: T1, peptide … (SEQ ID NO:51), N-terminally biotinylated (human)
# T1 sequence (peptide, N-terminally biotinylated): EISQEVRGDVFPSY
# Assay protocol: ELISA, biotin-peptide on neutravidin plate, antibody 1 ug/ml
Recorded metric: absorbance 450 nm minus 540 nm (absorbance)
Give bare numbers, in absorbance.

[
  {
    "Binder": "anti-lactadherin antibody 215A9 (antibody, IgG1, V domains shown, also called 2154A9; hybridoma 215A9) VH: QVSLKESGPGILQSSQTLSLTCSFSGFSLSTSGMGVSWIRQPSGKGLEWLAHIYWNDDKRYNPSLKSRLTISKDTSRDQVFLKITSVDTADTATYFCARRPRFYRDYDEGIDFWGQGTTLTVSS VL: QAVVTQESALTTSPGETVTLTCRSSTGAVTTNNYANWVQEKPDHLFTGLIGGTNNRTPGVPARFSGSLIGDKAALTITGAQTEDEAIYFCALWYSNLWVFGGGTKLTVLG",
    "Test value": 1.1
  }
]

Quote absorbance 450 nm minus 540 nm reported for anti-lactadherin antibody 399A12 (antibody, V domains shown, Murine monoclonal, kappa light chain; Variable regions identical to those of 416H9; also called hybridoma 399A12; LMBP 9491CB) VH: QVTLKESGPGVLQSSQTLSLTCSFSGFSLSTSGLGVIWIRQPSGAGLEWLAQIYWDDNKRYNPSLKSRLTISKDTSRNQVFLKITPVDTADTATYYCARRTFYDYDEGFYAMDYWGQGTSVTVSS VL: DIQMTQTTSSLSASLGDRVTITCRASQDISNYLNWYQQKPDGTIKLLIYYASRLHSGVPSRFSGSGSGTDYSLTISNLEQEDIATYFCQQGNTLPLTFGAGTKLELKR please. 1.62
